Molecular target: T1, human TNFR2 extracellular domain with C-terminal 10×His tag (human, UniProt P20333 23-257)
T1 construct: also called huTNFR2-His; His-tag-huTNFR2
T1 sequence: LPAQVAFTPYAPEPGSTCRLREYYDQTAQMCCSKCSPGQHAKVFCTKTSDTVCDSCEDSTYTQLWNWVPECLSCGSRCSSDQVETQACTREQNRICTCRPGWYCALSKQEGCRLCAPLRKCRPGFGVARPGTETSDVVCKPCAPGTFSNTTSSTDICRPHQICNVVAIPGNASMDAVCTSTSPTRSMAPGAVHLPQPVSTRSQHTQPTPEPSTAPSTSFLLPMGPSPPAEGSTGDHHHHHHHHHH
Experiment: BLI (Octet RED96), antibody captured on AHC biosensor, His-tag-huTNFR2 in solution, 1:1 model
Reported pKd values follow for various binders
Interpret pKd as the negative base-10 log of the concentration measured in mol/L.

binder | pKd
SB1901-69 humanized anti-TNFR2 antibody (antibody, V domains shown) VH: QVQLVQSGAEVKKPGASVKVSCKASGYTFTDDYIDWVRQATGQGLEWMGEIYPGSGNTYYNEKFKGRVTMTRDKSISTAYMELSSLRSEDTAVYYCARSQVYGKIAMDHWGQGTLVTVSS VL: DIVMTQSPDSLAVSLGERATINCRASESVDNSGNSFMHWYQQKPGQPPKLLIYRASNLESGVPDRFSGSGAGTDFTLTISSLQAEDVAVYYCQQSKEDPYTFGQGTKVEIK | 8.90

Determine its reported pKd: SB1901-80 humanized anti-TNFR2 antibody (antibody, V domains shown) VH: QVQLVQSGAEVKKPGASVKVSCKASGYTFTDDYIDWVRQAPGQGLEWIGEIYPGSGNTYYNEKFKGRVTMTRDTSTSTVYMELSSLRSEDTAVYYCARSQVYGKIAMDHWGQGTLVTVSS VL: DIVMTQSPDSLAVSLGERATINCRASESVDNSGNSFMHWYQQKPGQPPKLLIYRASNLESGVPDRFSGSGSRTDFTLTISSLQAEDVAVYYCQQSKEDPYTFGQGTKVEIK
8.60

Determine its reported pKd: SB1901-68 humanized anti-TNFR2 antibody (antibody, V domains shown) VH: QVQLVQSGAEVKKPGASVKVSCKASGYTFTDDYIDWVRQATGQGLEWIGEIYPGSGNTYYNEKFKGRVTMTRDTSISTAYMELSSLRSEDTAVYYCARSQVYGKIAMDHWGQGTLVTVSS VL: DIVMTQSPDSLAVSLGERATINCRASESVDNSGNSFMHWYQQKPGQPPKLLIYRASNLESGVPDRFSGSGSRTDFTLTISSLQAEDVAVYYCQQSKEDPYTFGQGTKVEIK
8.71

Determine its reported pKd: SB1901-72 humanized anti-TNFR2 antibody (antibody, V domains shown) VH: QVQLVQSGAEVKKPGASVKVSCKASGYTFTDDYIDWVRQATGQGLEWIGEIYPGSGNTYYNEKFKGRVTMTRDKSISTAYMELSSLRSEDTAVYYCARSQVYGKIAMDHWGQGTLVTVSS VL: DIVMTQSPDSLAVSLGERATINCRASESVDNSGNSFMHWYQQKPGQPPKLLIYRASNLESGVPDRFSGSGSRTDFTLTISSLQAEDVAVYYCQQSKEDPYTFGQGTKVEIK
8.95
